Hey, just so you know, these numbers are from paper PMC6337650.

- Assay comment: MTT antiproliferative assay, BEL-7402
- Format: cell-based, human
- Measurement parameters: human, BEL-7402 liver cancer cells versus normal L02 cells; BEL-7402 vs L02
Quantity name: selectivity ratio at 48 h

>  <Molecule>
Cc1ccc(-n2cc(CNC(=O)COC(=O)[C@]3(C)CCC[C@@]4(C)[C@@H]5CC[C@@]6(C)C[C@]5(CC[C@@H]43)CC6=O)nn2)cc1 [Compound 5d]

>  <Quantity name>
selectivity ratio at 48 h

>  <Recorded measurement>
11.2

$$$$

* * *

// reported melting point for each item listed
Quantity name: melting point

>  <Compound>
COc1ccc(OC)c(NC(=O)COC(=O)[C@]2(C)CCC[C@@]3(C)[C@@H]4CC[C@@]5(C)C[C@]4(CC[C@@H]32)CC5=O)c1

>  <Quantity name>
melting point

>  <Recorded measurement>
166 to 168 °C

$$$$
>  <Compound>
C[C@@]12CC[C@@H]3[C@@](CC[C@H]4[C@@]3(C)CCC[C@@]4(C)C(=O)OCC(=O)NCc3cn(-c4ccc(Cl)c(Cl)c4)nn3)(CC1=O)C2

>  <Quantity name>
melting point

>  <Recorded measurement>
96 to 97 °C

$$$$
>  <Compound>
CCOP(=O)(OCC)C(NC(=O)COC(=O)[C@]1(C)CCC[C@@]2(C)[C@@H]3CC[C@@]4(C)C[C@]3(CC[C@@H]21)CC4=O)c1ccc(Cl)c(Cl)c1 (stereo partly drawn)

>  <Quantity name>
melting point

>  <Recorded measurement>
168 to 169 °C

$$$$
>  <Compound>
C[C@@]12CC[C@@H]3[C@@](CC[C@H]4[C@@]3(C)CCC[C@@]4(C)C(=O)OCC(=O)Nc3ccc([N+](=O)[O-])cc3)(CC1=O)C2

>  <Quantity name>
melting point

>  <Recorded measurement>
189 to 190 °C

$$$$
>  <Compound>
C[C@@]12CC[C@@H]3[C@@](CC[C@H]4[C@@]3(C)CCC[C@@]4(C)C(=O)OCC(=O)Nc3ccccc3)(CC1=O)C2

>  <Quantity name>
melting point

>  <Recorded measurement>
154 to 156 °C

$$$$
>  <Compound>
CON(C)C(=O)[C@]1(C)CCC[C@@]2(C)[C@@H]3CC[C@@]4(C)C[C@]3(CC[C@@H]21)CC4=O

>  <Quantity name>
melting point

>  <Recorded measurement>
144 to 145 °C

$$$$

* * *

- Assay comment: MTT antiproliferative assay, HepG2
- Format: cell-based, human
- Measurement parameters: human, HepG2 liver cancer cells versus normal L02 cells; HepG2 vs L02
Quantity name: selectivity ratio at 48 h

>  <Molecule>
Cc1ccc(-n2cc(CNC(=O)COC(=O)[C@]3(C)CCC[C@@]4(C)[C@@H]5CC[C@@]6(C)C[C@]5(CC[C@@H]43)CC6=O)nn2)cc1 [Compound 5d]

>  <Recorded measurement>
22

$$$$

* * *

- Assay comment: MTT antiproliferative assay, HCT-116
- Assay type: cell-based, human
- Measurement parameters: human, HCT-116 colorectal cancer cells versus normal L02 cells; HCT-116 vs L02

>  <Molecule>
Cc1ccc(-n2cc(CNC(=O)COC(=O)[C@]3(C)CCC[C@@]4(C)[C@@H]5CC[C@@]6(C)C[C@]5(CC[C@@H]43)CC6=O)nn2)cc1 [Compound 5d]

>  <selectivity ratio at 48 h>
38.2

$$$$
